Reported pIC50 is given for each of the following compounds.
- Test system: MDA-MB-231
- measurement notes: cells
- Format: functional, cell-based
- test context: Homo sapiens, MDA-MB-231, 72 h
pIC50: −log10 of the molar value.

Cn1cc(-c2cnc3ncnc(NCc4cccc([N+](=O)[O-])c4)c3c2)cn1	< 4.00
CC(Nc1ncnc2ncc(-c3cnn(C)c3)cc12)c1ccncc1 (stereo not drawn)	< 4.00

Looking up COc1cccc(CNc2ncnc3ncc(-c4cnn(C)c4)cc23)c1 , I found its pIC50 recorded as < 4.00

* * *

IC50 tested on Receptor tyrosine-protein kinase erbB-4 (Homo sapiens): recorded values
Sequence (Q15303 whole entry): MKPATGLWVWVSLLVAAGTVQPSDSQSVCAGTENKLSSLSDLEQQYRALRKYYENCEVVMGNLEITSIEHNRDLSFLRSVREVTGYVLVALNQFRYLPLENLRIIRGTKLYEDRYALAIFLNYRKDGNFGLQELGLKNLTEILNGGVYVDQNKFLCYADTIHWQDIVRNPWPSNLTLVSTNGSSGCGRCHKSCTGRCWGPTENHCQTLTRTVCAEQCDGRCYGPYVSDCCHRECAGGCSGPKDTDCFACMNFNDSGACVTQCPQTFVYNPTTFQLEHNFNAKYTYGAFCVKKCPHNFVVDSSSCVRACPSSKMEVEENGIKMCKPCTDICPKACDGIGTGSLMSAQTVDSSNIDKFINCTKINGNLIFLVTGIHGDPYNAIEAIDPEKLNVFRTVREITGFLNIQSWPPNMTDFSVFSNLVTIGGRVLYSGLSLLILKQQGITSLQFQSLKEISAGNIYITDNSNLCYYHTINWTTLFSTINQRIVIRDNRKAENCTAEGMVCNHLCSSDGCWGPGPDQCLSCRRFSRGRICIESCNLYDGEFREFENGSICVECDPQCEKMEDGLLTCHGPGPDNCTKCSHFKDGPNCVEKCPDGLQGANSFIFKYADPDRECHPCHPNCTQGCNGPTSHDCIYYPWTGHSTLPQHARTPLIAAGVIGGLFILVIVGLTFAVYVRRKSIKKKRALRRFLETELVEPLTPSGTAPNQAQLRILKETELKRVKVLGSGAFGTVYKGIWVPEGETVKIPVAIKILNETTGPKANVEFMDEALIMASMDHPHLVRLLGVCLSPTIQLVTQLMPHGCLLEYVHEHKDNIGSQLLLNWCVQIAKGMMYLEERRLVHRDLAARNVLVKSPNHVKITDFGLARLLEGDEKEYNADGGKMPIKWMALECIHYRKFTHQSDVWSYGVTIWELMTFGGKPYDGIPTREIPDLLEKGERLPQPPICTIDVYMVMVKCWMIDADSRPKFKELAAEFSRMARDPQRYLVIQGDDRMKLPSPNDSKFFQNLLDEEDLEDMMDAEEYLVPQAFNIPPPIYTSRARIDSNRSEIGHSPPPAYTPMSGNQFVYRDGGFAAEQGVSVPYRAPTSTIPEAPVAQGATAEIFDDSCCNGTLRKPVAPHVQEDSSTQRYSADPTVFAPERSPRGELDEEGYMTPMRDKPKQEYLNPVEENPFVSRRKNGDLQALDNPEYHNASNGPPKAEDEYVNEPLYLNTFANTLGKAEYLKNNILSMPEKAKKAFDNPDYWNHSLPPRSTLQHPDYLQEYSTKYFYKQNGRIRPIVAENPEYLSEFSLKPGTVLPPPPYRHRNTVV
Respond numerically; units are nM and should not be typed.

Solved entries (count: 4):
Cn1cc(-c2ccc3ncnc(Nc4ccc(F)c(Cl)c4)c3c2)cn1	801
C#Cc1cccc(Nc2ncnc3ccc(-c4cnn(C)c4)cc23)c1	782
c1cnc2ccc(Nc3ncnc4ccc(-c5cnn(C6CCNCC6)c5)cc34)cc2c1	1100
Cn1cc(-c2ccc3ncnc(Nc4ccc5ncccc5c4)c3c2)cn1	930

The reported IC50 value, Receptor tyrosine-protein kinase erbB-4 (Homo sapiens), for Fc1ccc(Nc2ncnc3ccc(-c4cnn(C5CCNCC5)c4)cc23)cc1Cl reads 1600

* * *

IC50 tested on Epidermal growth factor receptor (Homo sapiens, UniProt P00533, L858R): recorded values
Sequence (P00533 25-1210 L858R limits assumed): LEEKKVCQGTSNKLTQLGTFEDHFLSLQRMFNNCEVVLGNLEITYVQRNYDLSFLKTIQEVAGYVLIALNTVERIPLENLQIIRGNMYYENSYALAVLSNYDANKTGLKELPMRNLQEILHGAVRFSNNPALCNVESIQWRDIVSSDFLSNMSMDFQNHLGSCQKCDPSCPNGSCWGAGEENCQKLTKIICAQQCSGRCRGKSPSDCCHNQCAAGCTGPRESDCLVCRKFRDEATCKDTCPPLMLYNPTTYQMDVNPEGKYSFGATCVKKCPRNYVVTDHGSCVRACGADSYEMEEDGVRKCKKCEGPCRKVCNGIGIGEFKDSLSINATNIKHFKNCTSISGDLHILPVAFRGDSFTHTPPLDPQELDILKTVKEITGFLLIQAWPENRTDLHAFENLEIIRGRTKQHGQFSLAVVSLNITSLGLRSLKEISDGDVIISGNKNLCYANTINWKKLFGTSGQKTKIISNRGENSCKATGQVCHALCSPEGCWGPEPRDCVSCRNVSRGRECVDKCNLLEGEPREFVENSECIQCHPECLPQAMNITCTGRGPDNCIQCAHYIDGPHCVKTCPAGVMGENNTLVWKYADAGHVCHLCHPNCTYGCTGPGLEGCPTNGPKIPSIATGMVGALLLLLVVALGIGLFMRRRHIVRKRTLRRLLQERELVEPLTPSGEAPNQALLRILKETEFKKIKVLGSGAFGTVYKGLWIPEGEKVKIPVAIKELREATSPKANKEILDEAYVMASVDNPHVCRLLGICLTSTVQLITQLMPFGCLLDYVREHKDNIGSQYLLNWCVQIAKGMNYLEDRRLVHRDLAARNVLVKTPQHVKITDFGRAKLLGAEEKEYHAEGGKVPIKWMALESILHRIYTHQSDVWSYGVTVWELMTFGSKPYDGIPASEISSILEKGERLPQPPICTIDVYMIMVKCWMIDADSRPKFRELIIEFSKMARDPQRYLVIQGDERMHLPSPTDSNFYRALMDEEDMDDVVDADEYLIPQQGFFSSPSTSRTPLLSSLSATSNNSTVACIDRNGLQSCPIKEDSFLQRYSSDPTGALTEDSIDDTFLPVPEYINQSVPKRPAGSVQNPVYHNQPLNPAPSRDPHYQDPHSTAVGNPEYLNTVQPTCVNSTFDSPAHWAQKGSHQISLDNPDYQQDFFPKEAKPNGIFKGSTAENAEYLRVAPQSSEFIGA
Respond numerically; units are nM and should not be typed.

Fc1ccc(Nc2ncnc3ccc(-c4cnn(C5CCNCC5)c4)cc23)cc1Cl	39.1
Cn1cc(-c2ccc3ncnc(Nc4ccc5ncccc5c4)c3c2)cn1	108
c1cnc2ccc(Nc3ncnc4ccc(-c5cnn(C6CCNCC6)c5)cc34)cc2c1	35
C#Cc1cccc(Nc2ncnc3ccc(-c4cnn(C)c4)cc23)c1	4.25

Continue with the compound presented below.
Looking up Cn1cc(-c2ccc3ncnc(Nc4ccc(F)c(Cl)c4)c3c2)cn1 , I found its IC50 recorded as 3.5

* * *

- System: MDA-MB-231
- measurement notes: cells
- Format: functional, cell-based
- test context: Homo sapiens, MDA-MB-231, 72 h
measurement name: IC50 (µM)

Solved entries (count: 6):
Cn1cc(-c2ccc3ncnc(Nc4ccc(F)c(Cl)c4)c3c2)cn1	62.6
COc1cccc(CNc2ncnc3ccc(-c4cnn(C)c4)cc23)c1	28.5
CC(Oc1nc(N)nc2ccc(-c3cnn(C4CCNCC4)c3)cc12)c1c(Cl)ccc(F)c1Cl (stereo not given)	7
CC(Nc1ncnc2ncc(-c3cnn(C4CCNCC4)c3)cc12)c1c(Cl)ccc(F)c1Cl (stereo not given)	7.11
c1cnc2ccc(Nc3ncnc4ccc(-c5cnn(C6CCNCC6)c5)cc34)cc2c1	30.3
Fc1ccc(Nc2ncnc3ccc(-c4cnn(C5CCNCC5)c4)cc23)cc1Cl	28.4

I: CC(Nc1ncnc2ccc(-c3cnn(C4CCNCC4)c3)cc12)c1c(Cl)ccc(F)c1Cl (stereo not given)
II: CC(Oc1ncnc2ccc(-c3cnn(C)c3)cc12)c1c(Cl)ccc(F)c1Cl (stereo not given)
III: CC(Oc1ncnc2ccc(-c3cnn(C4CCNCC4)c3)cc12)c1c(Cl)ccc(F)c1Cl (stereo not given)
Ask: Order each entry by recorded IC50, climbing from the minimum. Please list the labels according to the requested order.
Result: III, I, II

* * *

- tested system: Epidermal growth factor receptor (Homo sapiens, UniProt P00533)
- Sequence (P00533 whole entry): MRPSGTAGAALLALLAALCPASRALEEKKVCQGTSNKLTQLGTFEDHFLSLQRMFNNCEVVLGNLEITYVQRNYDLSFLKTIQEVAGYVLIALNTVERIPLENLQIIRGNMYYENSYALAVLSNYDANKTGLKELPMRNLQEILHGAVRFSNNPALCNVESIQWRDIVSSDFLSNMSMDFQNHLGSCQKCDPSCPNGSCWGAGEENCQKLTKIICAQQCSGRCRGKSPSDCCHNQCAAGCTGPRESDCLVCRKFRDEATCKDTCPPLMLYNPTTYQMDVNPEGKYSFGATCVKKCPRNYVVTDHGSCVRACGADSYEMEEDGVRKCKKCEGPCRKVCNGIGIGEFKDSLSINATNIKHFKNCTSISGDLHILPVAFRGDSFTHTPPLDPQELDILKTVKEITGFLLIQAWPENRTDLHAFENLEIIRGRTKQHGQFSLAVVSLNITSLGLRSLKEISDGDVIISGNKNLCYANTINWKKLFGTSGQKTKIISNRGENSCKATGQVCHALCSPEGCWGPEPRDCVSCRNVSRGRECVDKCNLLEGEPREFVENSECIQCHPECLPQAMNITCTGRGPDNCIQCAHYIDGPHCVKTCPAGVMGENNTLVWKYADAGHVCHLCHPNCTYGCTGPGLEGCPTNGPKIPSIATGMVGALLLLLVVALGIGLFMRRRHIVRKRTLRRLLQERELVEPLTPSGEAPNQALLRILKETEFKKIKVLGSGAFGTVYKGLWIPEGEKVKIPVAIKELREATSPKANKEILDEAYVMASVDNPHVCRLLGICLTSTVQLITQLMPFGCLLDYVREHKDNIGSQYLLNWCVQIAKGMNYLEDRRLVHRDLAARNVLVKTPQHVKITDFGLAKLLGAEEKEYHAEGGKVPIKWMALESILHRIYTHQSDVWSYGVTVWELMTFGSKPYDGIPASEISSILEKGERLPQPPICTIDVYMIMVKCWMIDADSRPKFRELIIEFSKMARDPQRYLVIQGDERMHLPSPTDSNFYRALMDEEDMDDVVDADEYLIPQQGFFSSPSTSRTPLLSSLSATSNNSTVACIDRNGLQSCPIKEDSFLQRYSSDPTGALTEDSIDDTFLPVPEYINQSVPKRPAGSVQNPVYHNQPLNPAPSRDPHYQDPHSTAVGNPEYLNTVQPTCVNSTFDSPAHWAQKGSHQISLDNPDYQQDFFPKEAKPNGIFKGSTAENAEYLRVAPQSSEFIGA
- test context: at 1 µM
measurement name: inhibition (%)

C#Cc1cccc(Nc2ncnc3ccc(-c4cnn(C)c4)cc23)c1	102

A: CC(Oc1ncnc2ccc(-c3cnn(C)c3)cc12)c1c(Cl)ccc(F)c1Cl (stereo not drawn)
B: CC(Oc1ncnc2ccc(-c3cnn(C4CCNCC4)c3)cc12)c1c(Cl)ccc(F)c1Cl (stereo not drawn)
C: CC(Nc1nc(N)nc2ccc(-c3cnn(C4CCNCC4)c3)cc12)c1c(Cl)ccc(F)c1Cl (stereo not drawn)
Ask: Order each entry by recorded inhibition, climbing from the minimum. Please list the labels according to the requested order.
Result: A, C, B

* * *

- Tested on: SK-BR-3
- measurement notes: cells
- Format: functional, cell-based
- test context: Homo sapiens, SK-BR-3, 72 h
- Description: Antiproliferative activity against human SK-BR-3 cells after 72 hrs by MTT assay
measurement name: IC50 (µM)

C#Cc1cccc(Nc2ncnc3ccc(-c4cnn(C)c4)cc23)c1	5.87
CC(Oc1ncnc2ccc(-c3cnn(C)c3)cc12)c1c(Cl)ccc(F)c1Cl (stereo not drawn)	27.2
COc1cccc(CNc2ncnc3ccc(-c4cnn(C)c4)cc23)c1	36

* * *

- Tested on: SK-BR-3;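 also: antiproliferative effect determined with an MTT read-out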
- measurement notes: cells
- Format: functional, cell-based
- test context: Homo sapiens, SK-BR-3, 72 h
measurement name: IC50 (µM)

CC(Oc1ncnc2ccc(-c3cnn(C4CCNCC4)c3)cc12)c1c(Cl)ccc(F)c1Cl (stereo not given)	2.5
CC(Nc1nc(N)nc2ccc(-c3cnn(C)c3)cc12)c1c(Cl)ccc(F)c1Cl (stereo not given)	7.14
Cn1cc(-c2ccc3ncnc(Nc4ccc5ncccc5c4)c3c2)cn1	0.064
Fc1ccc(Nc2ncnc3ccc(-c4cnn(C5CCNCC5)c4)cc23)cc1Cl	3.74
Cn1cc(-c2ccc3ncnc(Nc4ccc(F)c(Cl)c4)c3c2)cn1	3.1

1: CC(Nc1ncnc2ccc(-c3cnn(C4CCNCC4)c3)cc12)c1c(Cl)ccc(F)c1Cl (stereo not given)
2: CC(Nc1ncnc2ncc(-c3cnn(C4CCNCC4)c3)cc12)c1c(Cl)ccc(F)c1Cl (stereo not given)
3: CC(Nc1nc(N)nc2ccc(-c3cnn(C4CCNCC4)c3)cc12)c1c(Cl)ccc(F)c1Cl (stereo not given)
Ask: Order each entry by recorded IC50, climbing from the minimum. Please list the labels according to the requested order.
Result: 3, 1, 2

* * *

- Test system: A549
- measurement notes: cells
- Format: functional, cell-based
- test context: Homo sapiens, A549, 72 h
- Description: Antiproliferative activity against human A549 cells after 72 hrs by MTT assay
measurement name: IC50 (µM)

C#Cc1cccc(Nc2ncnc3ccc(-c4cnn(C)c4)cc23)c1	9.86

I: Cn1cc(-c2ccc3ncnc(Oc4ccc5ncccc5c4)c3c2)cn1
II: CC(Nc1ncnc2ccc(-c3cnn(C4CCNCC4)c3)cc12)c1c(Cl)ccc(F)c1Cl (stereo not drawn)
Ask: Hi! Which is lower in terms of IC50, the first one I or the second one II ? Your choice should be expressed through its label.
Result: II

* * *

- tested system: Epidermal growth factor receptor (Homo sapiens, UniProt P00533)
Reported pIC50 is given for each of the following compounds.
Answer as the number alone; pIC50 is minus log10 of concentration in mol/L.

Solved entries (count: 4):
c1cnc2ccc(Nc3ncnc4ccc(-c5cnn(C6CCNCC6)c5)cc34)cc2c1	7.55
C#Cc1cccc(Nc2ncnc3ccc(-c4cnn(C)c4)cc23)c1	8.45
Fc1ccc(Nc2ncnc3ccc(-c4cnn(C5CCNCC5)c4)cc23)cc1Cl	7.50
Cn1cc(-c2ccc3ncnc(Nc4ccc(F)c(Cl)c4)c3c2)cn1	8.53

Continue with the compound presented below.
The reported pIC50 value, Epidermal growth factor receptor (Homo sapiens, UniProt P00533), for Cn1cc(-c2ccc3ncnc(Nc4ccc5ncccc5c4)c3c2)cn1 reads 7.36

* * *

Reported IC50 is given for each of the following compounds.
- tested system: Receptor tyrosine-protein kinase erbB-2 (Homo sapiens)
- Sequence (P04626 whole entry): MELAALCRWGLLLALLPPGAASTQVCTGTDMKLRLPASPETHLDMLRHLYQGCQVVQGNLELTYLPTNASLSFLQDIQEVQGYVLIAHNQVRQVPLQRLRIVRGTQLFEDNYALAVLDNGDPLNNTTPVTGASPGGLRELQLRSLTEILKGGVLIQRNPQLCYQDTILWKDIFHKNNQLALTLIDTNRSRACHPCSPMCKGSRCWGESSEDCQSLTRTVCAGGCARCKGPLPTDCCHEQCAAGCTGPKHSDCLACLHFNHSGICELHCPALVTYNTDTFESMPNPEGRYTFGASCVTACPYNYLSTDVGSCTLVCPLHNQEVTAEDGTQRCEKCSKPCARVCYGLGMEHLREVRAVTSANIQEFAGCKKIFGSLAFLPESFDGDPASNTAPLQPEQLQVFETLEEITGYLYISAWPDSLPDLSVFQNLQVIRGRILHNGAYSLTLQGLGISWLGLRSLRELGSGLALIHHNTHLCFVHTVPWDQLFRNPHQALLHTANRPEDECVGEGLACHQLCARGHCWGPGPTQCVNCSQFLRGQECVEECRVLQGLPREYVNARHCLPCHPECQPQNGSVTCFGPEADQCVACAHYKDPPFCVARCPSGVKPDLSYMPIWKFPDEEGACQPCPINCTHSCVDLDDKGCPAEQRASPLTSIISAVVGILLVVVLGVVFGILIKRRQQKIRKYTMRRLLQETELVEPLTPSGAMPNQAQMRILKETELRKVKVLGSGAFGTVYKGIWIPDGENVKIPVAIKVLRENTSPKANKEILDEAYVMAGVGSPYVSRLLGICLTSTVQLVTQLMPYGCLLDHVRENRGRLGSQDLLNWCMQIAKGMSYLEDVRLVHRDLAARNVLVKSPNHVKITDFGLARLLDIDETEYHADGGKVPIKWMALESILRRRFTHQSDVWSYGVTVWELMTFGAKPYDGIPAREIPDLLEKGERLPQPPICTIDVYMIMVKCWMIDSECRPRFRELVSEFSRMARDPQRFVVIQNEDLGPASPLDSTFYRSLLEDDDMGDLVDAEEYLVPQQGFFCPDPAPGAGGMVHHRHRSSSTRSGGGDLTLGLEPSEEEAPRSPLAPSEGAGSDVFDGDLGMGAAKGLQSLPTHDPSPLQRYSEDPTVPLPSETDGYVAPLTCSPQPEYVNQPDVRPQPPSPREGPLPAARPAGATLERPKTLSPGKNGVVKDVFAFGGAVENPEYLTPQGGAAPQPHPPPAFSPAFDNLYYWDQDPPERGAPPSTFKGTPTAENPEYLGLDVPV
- measurement notes: Inhibition of cytoplasmic His-tagged human ErbB2 expressed in baculovirus system by z-lyte assay
Respond numerically; units are nM and should not be typed.

Solved entries (count: 2):
Fc1ccc(Nc2ncnc3ccc(-c4cnn(C5CCNCC5)c4)cc23)cc1Cl	1200
Cn1cc(-c2ccc3ncnc(Nc4ccc5ncccc5c4)c3c2)cn1	874

Looking up c1cnc2ccc(Nc3ncnc4ccc(-c5cnn(C6CCNCC6)c5)cc34)cc2c1 , I found its IC50 recorded as 1350

Looking up C#Cc1cccc(Nc2ncnc3ccc(-c4cnn(C)c4)cc23)c1 , I found its IC50 recorded as 590

Looking up Cn1cc(-c2ccc3ncnc(Nc4ccc(F)c(Cl)c4)c3c2)cn1 , I found its IC50 recorded as 676

* * *

- Test system: MDA-MB-231;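 also: antiproliferative effect read out with the MTT assay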
- measurement notes: cells
- Type: functional, cell-based
- test context: Homo sapiens, MDA-MB-231, 72 h
measurement name: IC50 (µM)

Solved entries (count: 2):
C#Cc1cccc(Nc2ncnc3ccc(-c4cnn(C)c4)cc23)c1	16.9
Cn1cc(-c2ccc3ncnc(Nc4ccc5ncccc5c4)c3c2)cn1	26.3

A: Cn1cc(-c2ccc3ncnc(Oc4ccc5ncccc5c4)c3c2)cn1
B: CC(Nc1nc(N)nc2ccc(-c3cnn(C4CCNCC4)c3)cc12)c1c(Cl)ccc(F)c1Cl (stereo not given)
C: CC(Nc1nc(N)nc2ccc(-c3cnn(C)c3)cc12)c1c(Cl)ccc(F)c1Cl (stereo not given)
Ask: Order each entry by recorded IC50, climbing from the minimum. Please list the labels according to the requested order.
Result: B, C, A
(B: 4.48 µM, C: 7.96 µM, A: 16.5 µM)

* * *

- Tested on: A549;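 also: antiproliferative effect read out by MTT assay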
- measurement notes: cells
- Type: functional, cell-based
- test context: Homo sapiens, A549, 72 h
Reported pIC50 is given for each of the following molecules.
Answer as the number alone; pIC50 is minus log10 of concentration in mol/L.

CC(Oc1ncnc2ccc(-c3cnn(C)c3)cc12)c1c(Cl)ccc(F)c1Cl (stereo not given)	4.54

Continue with the molecule presented below.
Looking up Fc1ccc(Nc2ncnc3ccc(-c4cnn(C5CCNCC5)c4)cc23)cc1Cl , I found its pIC50 recorded as 4.53

Source: ChEMBL document CHEMBL3826970
